Entry source: patent US9132134B2

STUDY SYSTEM: H1 (Homo sapiens (Human), UniProt P35367)
Sequence (P35367 whole entry): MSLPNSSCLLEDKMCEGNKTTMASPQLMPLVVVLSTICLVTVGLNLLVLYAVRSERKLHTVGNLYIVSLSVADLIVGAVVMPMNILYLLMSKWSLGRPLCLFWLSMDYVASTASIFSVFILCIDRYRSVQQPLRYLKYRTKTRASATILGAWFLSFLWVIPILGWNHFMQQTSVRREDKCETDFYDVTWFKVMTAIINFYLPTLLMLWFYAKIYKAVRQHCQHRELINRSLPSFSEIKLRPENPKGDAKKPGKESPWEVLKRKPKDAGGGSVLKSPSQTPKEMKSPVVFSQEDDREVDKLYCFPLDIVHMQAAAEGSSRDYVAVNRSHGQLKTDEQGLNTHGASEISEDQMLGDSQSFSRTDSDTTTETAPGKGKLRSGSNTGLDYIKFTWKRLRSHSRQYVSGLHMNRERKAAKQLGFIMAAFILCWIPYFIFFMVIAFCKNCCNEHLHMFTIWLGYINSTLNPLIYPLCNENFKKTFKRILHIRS
ASSAY: Radioligand binding affinity, H1

# STRUCTURE SMILES STRING, STUDY SYSTEM, Ki
records = [
    ("CS(=O)(=O)c1ccc2c(c1)N(CCCN1CCC(C(=O)O)CC1)c1ccccc1S2", "H1 (Homo sapiens (Human), UniProt P35367)", "140 nM"),
]

---

STUDY SYSTEM: UniProt P35462
Sequence (P35462 whole entry): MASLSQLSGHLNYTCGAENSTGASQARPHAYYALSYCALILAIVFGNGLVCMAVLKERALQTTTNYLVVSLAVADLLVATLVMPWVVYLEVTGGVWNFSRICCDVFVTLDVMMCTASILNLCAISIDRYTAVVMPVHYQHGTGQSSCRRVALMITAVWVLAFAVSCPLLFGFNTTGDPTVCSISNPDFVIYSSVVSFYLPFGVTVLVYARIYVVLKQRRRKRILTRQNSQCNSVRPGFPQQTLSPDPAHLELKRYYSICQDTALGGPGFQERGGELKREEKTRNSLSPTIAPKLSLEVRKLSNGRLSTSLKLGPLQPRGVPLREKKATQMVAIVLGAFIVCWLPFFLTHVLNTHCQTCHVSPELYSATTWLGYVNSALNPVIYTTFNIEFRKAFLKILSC
ASSAY: Radioligand binding affinity, D3

# COMPOUND, SIGN QUALIFIER, Ki [nM]
measured = [
    ("CCN(CC)CCNC(=O)c1cc(Cl)c(N)cc1OC [Metoclopramide]", "=", 16),
    ("CS(=O)(=O)c1ccc2c(c1)N(CCCN1CCC(C(N)=O)CC1)c1ccccc1S2", "=", 0.61),
    ("CS(=O)(=O)c1ccc2c(c1)N(CCCN1CCC(C(=O)O)CC1)c1ccccc1S2", ">", 100),
]
